# study target: human glucagon receptor (GCGR) (human, UniProt P47871 26-477)
# test details: cell-based or functional assay
Where no end group is shown, it is not given here.
Provide the recorded hGCGR pEC50 (cAMP) for the entries that follow.
Quick note: give the figure in pEC50, leave out the unit.

Endpoint output: hGCGR pEC50 (cAMP) of YSHGTFTSDYSKYLDSARAQEFVKWLEDEPSSGAPPPS-OH [Compound A37] . Value?
13

Endpoint output: hGCGR pEC50 (cAMP) of YTHGTFTSDYSKYLDSARAQEFVKWLEDEPSSGAPPPS-OH [Compound A63] . Value?
10.4

Endpoint output: hGCGR pEC50 (cAMP) of YSHGTFTSDYSKYLDSARAQEFVKWLEDEPSSGAPPPS-NH2 [Compound A5] . Value?
11.8

Endpoint output: hGCGR pEC50 (cAMP) of YTHGTFTSDYSKWLDSKRAQEFVKWLEDEPSSGAPPPS-OH [Compound A42] . Value?
9.4

Endpoint output: hGCGR pEC50 (cAMP) of YSHGTFTSDYSKYLDSARAQEFVKWLEDEPKSKEPPPS-NH2 [Compound A72] . Value?
12.1

Endpoint output: hGCGR pEC50 (cAMP) of YSHGTFTSDYSKYLDSARAQEFVKWLEDEPKSKSPPPS-NH2 [Compound A73] . Value?
11.7

Endpoint output: hGCGR pEC50 (cAMP) of YSHGTFTSDYSKYLDSARAQEFVKWLEDEPKSKSPPPS-OH [Compound A70] . Value?
12

Endpoint output: hGCGR pEC50 (cAMP) of YSHGTFTSDYSKYLDKARAQEFVKWLEDEPSSGAPPPS-OH [Compound A43] . Value?
11.8

Endpoint output: hGCGR pEC50 (cAMP) of YSHGTFTSDYSKYLDSARAQEFVKWLEDEPKSKAPPPS-NH2 [Compound A74] . Value?
11.6

Endpoint output: hGCGR pEC50 (cAMP) of YSHGTFTSDYSKYLDSARAQEFVKWLEDEPKSKAPPPS-OH [Compound A71] . Value?
11.7

Endpoint output: hGCGR pEC50 (cAMP) of YSQGTFTSDYSKYLDAARAQEFVKWLEDEPKSKSPPPS-NH2 [Compound A3] . Value?
12.1

Endpoint output: hGCGR pEC50 (cAMP) of YSHGTFTSDYSKYLDSARAQEFVKWLEDEPKSKEPPPS-OH [Compound A69] . Value?
11.8
